Kindly supply the reported activity coefficient values for the records listed here.
Experiment: activity coefficient (dimensionless); of the first substance listed, at infinite dilution; xn = mol fraction of the nth substance listed
Settings: 343.15 K; Liquid; Chromatography; x1 = 0
When you answer, write just the number.

In: Look at this molecule and give its reported activity coefficient. CCC=O [propanal] + CCCCCCCCCC[N+](C)(C)C.O=S(=O)([N-]S(=O)(=O)C(F)(F)F)C(F)(F)F
Out: 0.41

In: Can you look up the measured activity coefficient of C=CCCCC [hex-1-ene] + CCCCCCCCCC[N+](C)(C)C.O=S(=O)([N-]S(=O)(=O)C(F)(F)F)C(F)(F)F for me?
Out: 2.76

In: Returns the measured activity coefficient for the input molecule. Input: CCCCCCC [heptane] + CCCCCCCCCC[N+](C)(C)C.O=S(=O)([N-]S(=O)(=O)C(F)(F)F)C(F)(F)F
Out: 4.92

In: Consider the molecule c1ccsc1 [thiophene] + CCCCCCCC[N+](CCCCCCCC)(CCCCCCCC)CCCCCCCC.O=S(=O)([N-]S(=O)(=O)C(F)(F)F)C(F)(F)F and give its measured activity coefficient.
Out: 0.41

In: For the molecule shown here, C[N+](=O)[O-] [nitromethane] + CCCCCCCC[N+](CCCCCCCC)(CCCCCCCC)CCCCCCCC.O=S(=O)([N-]S(=O)(=O)C(F)(F)F)C(F)(F)F , give the reported activity coefficient.
Out: 0.59

In: Return reported activity coefficient; argument: CC1CCCCC1 [methylcyclohexane] + CCCCCCCC[N+](C)(C)C.O=S(=O)([N-]S(=O)(=O)C(F)(F)F)C(F)(F)F
Out: 4.6

In: Look up activity coefficient: CCO [ethanol] + CCCCCCCCCC[N+](C)(C)C.O=S(=O)([N-]S(=O)(=O)C(F)(F)F)C(F)(F)F
Out: 1.07

In: // returns reported activity coefficient for input C1CCCCCC1 [cycloheptane] + CCCCCCCCCC[N+](C)(C)C.O=S(=O)([N-]S(=O)(=O)C(F)(F)F)C(F)(F)F
Out: 14.6

In: activity coefficient lookup needed for C#CCCCCC [1-heptyne] + CCCCCCCCCC[N+](C)(C)C.O=S(=O)([N-]S(=O)(=O)C(F)(F)F)C(F)(F)F , thanks.
Out: 1.97

In: Looking for the measured activity coefficient of Cc1ccccc1C [1,2-dimethylbenzene] + CCCCCCCC[N+](C)(C)C.O=S(=O)([N-]S(=O)(=O)C(F)(F)F)C(F)(F)F , can you help?
Out: 1.25

In: Dear colleague, I am looking for the recorded activity coefficient of the following molecule: C=O [methanal] + CCCC[N+](C)(CCCC)CCCC.O=S(=O)([N-]S(=O)(=O)C(F)(F)F)C(F)(F)F
Out: 0.13

In: # lookup: activity coefficient of CO [methanol] + CCCCCCCC[N+](CCCCCCCC)(CCCCCCCC)CCCCCCCC.O=S(=O)([N-]S(=O)(=O)C(F)(F)F)C(F)(F)F
Out: 0.82

In: Fill blank: measured activity coefficient of the molecule C=O [methanal] + CCCCCCCCCC[N+](C)(C)C.O=S(=O)([N-]S(=O)(=O)C(F)(F)F)C(F)(F)F is ____.
Out: 0.11

In: Fill in: activity coefficient of C#CCCCCC [1-heptyne] + CCCCCCCC[N+](CCCCCCCC)(CCCCCCCC)CCCCCCCC.O=S(=O)([N-]S(=O)(=O)C(F)(F)F)C(F)(F)F is ___
Out: 0.87

In: Look at this molecule and give its reported activity coefficient. ClC(Cl)(Cl)Cl [tetrachloromethane] + CCCCCCCC[N+](C)(C)C.O=S(=O)([N-]S(=O)(=O)C(F)(F)F)C(F)(F)F
Out: 1.6

In: Look at this molecule and give its reported activity coefficient. ClC(Cl)(Cl)Cl [tetrachloromethane] + CCCCCCCCCC[N+](C)(C)C.O=S(=O)([N-]S(=O)(=O)C(F)(F)F)C(F)(F)F
Out: 1.47

In: Any idea what its activity coefficient is? The molecule is Cc1ccc(C)cc1 [1,4-dimethylbenzene] + CCCCCCCC[N+](CCCCCCCC)(CCCCCCCC)CCCCCCCC.O=S(=O)([N-]S(=O)(=O)C(F)(F)F)C(F)(F)F
Out: 0.62

In: Need activity coefficient, item CCOCC [diethyl ether] + CCCCCCCC[N+](C)(C)C.O=S(=O)([N-]S(=O)(=O)C(F)(F)F)C(F)(F)F
Out: 1.53

In: Quick check: activity coefficient of CCC(=O)CC [pentan-3-one] + CCCCCCCC[N+](C)(C)C.O=S(=O)([N-]S(=O)(=O)C(F)(F)F)C(F)(F)F ?
Out: 0.54

In: Field request: activity coefficient | item: CCCCCCCCCCCC [dodecane] + CCCC[N+](C)(CCCC)CCCC.O=S(=O)([N-]S(=O)(=O)C(F)(F)F)C(F)(F)F
Out: 28.8

In: Return reported activity coefficient; argument: CCCCCCCCCCCC [dodecane] + CCCCCCCC[N+](C)(C)C.O=S(=O)([N-]S(=O)(=O)C(F)(F)F)C(F)(F)F
Out: 27.1

In: May I ask what activity coefficient has been recorded for Cc1ccc(C)cc1 [1,4-dimethylbenzene] + CCCC[N+](C)(CCCC)CCCC.O=S(=O)([N-]S(=O)(=O)C(F)(F)F)C(F)(F)F ?
Out: 1.56

In: Reported activity coefficient, molecule CCCCCCCCC [nonane] + CCCC[N+](C)(CCCC)CCCC.O=S(=O)([N-]S(=O)(=O)C(F)(F)F)C(F)(F)F : ____
Out: 15

In: Which activity coefficient value belongs to C1CCCCC1 [cyclohexane] + CCCCCCCC[N+](C)(C)C.O=S(=O)([N-]S(=O)(=O)C(F)(F)F)C(F)(F)F ?
Out: 3.57

In: Given the entry CCCCO [butan-1-ol] + CCCCCCCC[N+](C)(C)C.O=S(=O)([N-]S(=O)(=O)C(F)(F)F)C(F)(F)F , report its measured activity coefficient.
Out: 1.59

In: Give the measured activity coefficient of Cc1ccccc1 [toluene] + CCCC[N+](C)(CCCC)CCCC.O=S(=O)([N-]S(=O)(=O)C(F)(F)F)C(F)(F)F .
Out: 1.19

In: Entry c1ccsc1 [thiophene] + CCCC[N+](C)(CCCC)CCCC.O=S(=O)([N-]S(=O)(=O)C(F)(F)F)C(F)(F)F has what activity coefficient?
Out: 0.87

----------
Test: activity coefficient (dimensionless); of the first substance listed, at infinite dilution; xn = mol fraction of the nth substance listed
Conditions: 322.85 K; Liquid; Chromatography; x1 = 0
activity coefficient under 2 gets class 1, anything at or over 2 gets class 0.

In: Say whether its activity coefficient is strictly beneath 2. Entry: C#CCCCCC [1-heptyne] + CCCCCCCC[N+](CCCCCCCC)(CCCCCCCC)CCCCCCCC.O=S(=O)([N-]S(=O)(=O)C(F)(F)F)C(F)(F)F
Out: class 1

In: Quick check: does Cc1ccccc1 [toluene] + CCCCCCCC[N+](C)(C)C.O=S(=O)([N-]S(=O)(=O)C(F)(F)F)C(F)(F)F have activity coefficient under 2?
Out: class 1

In: Is activity coefficient strictly under 2 for the entry CCCCCCCCCC [decane] + CCCC[N+](C)(CCCC)CCCC.O=S(=O)([N-]S(=O)(=O)C(F)(F)F)C(F)(F)F ?
Out: class 0

In: Record C[N+](=O)[O-] [nitromethane] + CCCCCCCC[N+](C)(C)C.O=S(=O)([N-]S(=O)(=O)C(F)(F)F)C(F)(F)F : is its activity coefficient strictly below 2?
Out: class 1

In: hey, is activity coefficient for CCCCCCC [heptane] + CCCCCCCC[N+](C)(C)C.O=S(=O)([N-]S(=O)(=O)C(F)(F)F)C(F)(F)F lower than 2 or not?
Out: class 0

In: Dear reviewer, please state whether C=O [methanal] + CCCCCCCCCC[N+](C)(C)C.O=S(=O)([N-]S(=O)(=O)C(F)(F)F)C(F)(F)F has activity coefficient strictly beneath 2.
Out: class 1

----------
Experiment: activity coefficient (dimensionless); of the first substance listed, at infinite dilution; xn = mol fraction of the nth substance listed
Details: 343.15 K; Liquid; Chromatography; x1 = 0
Reported property: activity coefficient
Keep the answer to the number alone.

In: Value lookup for activity coefficient; key = CCc1ccccc1 [ethylbenzene] + CCCCCCCC[N+](C)(C)C.O=S(=O)([N-]S(=O)(=O)C(F)(F)F)C(F)(F)F
Out: 1.38

In: Quick one: activity coefficient of C1CCCCCC1 [cycloheptane] + CCCCCCCC[N+](C)(C)C.O=S(=O)([N-]S(=O)(=O)C(F)(F)F)C(F)(F)F ?
Out: 19.4

In: Given the compound CCCCCCCCC [nonane] + CCCCCCCC[N+](C)(C)C.O=S(=O)([N-]S(=O)(=O)C(F)(F)F)C(F)(F)F , what is its reported activity coefficient?
Out: 13.4

In: Suppose we examine the compound CCCC(C)=O [pentan-2-one] + CCCC[N+](C)(CCCC)CCCC.O=S(=O)([N-]S(=O)(=O)C(F)(F)F)C(F)(F)F ; what activity coefficient value has been reported?
Out: 0.59

In: GET /values?readout=activity coefficient&item= CCC(C)=O [butanone] + CCCCCCCC[N+](CCCCCCCC)(CCCCCCCC)CCCCCCCC.O=S(=O)([N-]S(=O)(=O)C(F)(F)F)C(F)(F)F
Out: 0.26

In: Entry CCCCCCCCCCC [undecane] + CCCC[N+](C)(CCCC)CCCC.O=S(=O)([N-]S(=O)(=O)C(F)(F)F)C(F)(F)F : reported activity coefficient = ?
Out: 22.8

In: May I ask what activity coefficient has been recorded for CCCCCCCC [octane] + CCCCCCCC[N+](C)(C)C.O=S(=O)([N-]S(=O)(=O)C(F)(F)F)C(F)(F)F ?
Out: 9.47

In: Looking for the measured activity coefficient of c1ccccc1 [benzene] + CCCC[N+](C)(CCCC)CCCC.O=S(=O)([N-]S(=O)(=O)C(F)(F)F)C(F)(F)F , can you help?
Out: 0.92

In: Look at this compound and give its reported activity coefficient. CC(C)O [propan-2-ol] + CCCCCCCCCC[N+](C)(C)C.O=S(=O)([N-]S(=O)(=O)C(F)(F)F)C(F)(F)F
Out: 1.15

In: # query: activity coefficient of entry OCC(F)(F)F [2,2,2-trifluoroethanol] + CCCC[N+](C)(CCCC)CCCC.O=S(=O)([N-]S(=O)(=O)C(F)(F)F)C(F)(F)F
Out: 0.45

In: Endpoint output: activity coefficient of CC(C)O [propan-2-ol] + CCCCCCCC[N+](C)(C)C.O=S(=O)([N-]S(=O)(=O)C(F)(F)F)C(F)(F)F . Value?
Out: 1.32

In: Data request, read-out activity coefficient, for CC1CCCC1 [methylcyclopentane] + CCCCCCCC[N+](C)(C)C.O=S(=O)([N-]S(=O)(=O)C(F)(F)F)C(F)(F)F
Out: 3.67

In: // query activity coefficient value for entry CCCCCCCCC [nonane] + CCCCCCCC[N+](CCCCCCCC)(CCCCCCCC)CCCCCCCC.O=S(=O)([N-]S(=O)(=O)C(F)(F)F)C(F)(F)F
Out: 2.09

In: If you can, please state the reported activity coefficient value of CCCCCC [hexane] + CCCCCCCCCC[N+](C)(C)C.O=S(=O)([N-]S(=O)(=O)C(F)(F)F)C(F)(F)F .
Out: 3.93
